pIC50: −log10 of the molar value.
Target or system Estrogen receptor (Homo sapiens): recorded pIC50 listed per item.

Report value: pIC50, system: Estrogen receptor (Homo sapiens), substance: `H-HKILHRLLQ-NH2`
< 6.00

Report value: pIC50, system: Estrogen receptor (Homo sapiens), substance: `H-HKILHRLLQGGGRRRRRRR-NH2`
< 6.00

---

Target protein (sequence): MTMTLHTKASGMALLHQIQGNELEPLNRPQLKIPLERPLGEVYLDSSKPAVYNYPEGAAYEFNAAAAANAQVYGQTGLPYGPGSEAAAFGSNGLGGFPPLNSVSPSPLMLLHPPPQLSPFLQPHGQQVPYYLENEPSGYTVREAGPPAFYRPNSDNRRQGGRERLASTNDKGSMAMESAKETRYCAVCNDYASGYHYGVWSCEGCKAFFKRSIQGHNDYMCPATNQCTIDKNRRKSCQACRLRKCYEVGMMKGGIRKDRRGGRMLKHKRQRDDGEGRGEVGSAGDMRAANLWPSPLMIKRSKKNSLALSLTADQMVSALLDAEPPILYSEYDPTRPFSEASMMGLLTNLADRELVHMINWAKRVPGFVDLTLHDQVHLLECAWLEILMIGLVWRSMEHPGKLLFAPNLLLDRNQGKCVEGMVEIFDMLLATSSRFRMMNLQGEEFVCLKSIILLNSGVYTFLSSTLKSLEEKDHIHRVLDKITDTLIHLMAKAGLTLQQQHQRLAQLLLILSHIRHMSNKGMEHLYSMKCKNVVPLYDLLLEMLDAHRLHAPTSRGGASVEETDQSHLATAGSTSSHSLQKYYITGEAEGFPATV
Positions of bridges follow the written chain, without caps; N, C: chain ends. Non-standard residues stand in square brackets, D forms with d. Residues, ends and D or L forms follow the SMILES beside them. ξ: configuration not given here. ξtBuAla = CC(C)(C)CC(N)C(=O)O; ξAbu = CCC(N)C(=O)O
OBSERVABLE: pIC50
Units for pIC50: none; it is -log10 of a concentration expressed in mol/L.

Examples with answers:
CC[C@H](C)[C@@H]1NC(=O)[C@H](NC(=O)[C@@H](N)CCCNC(=N)N)C/C=C\C[C@@H](C(=O)N[C@@H](CCCNC(=N)N)C(=O)NC(CC(C)(C)C)C(=O)N[C@@H](CC(C)C)C(=O)N[C@@H](CCC(N)=O)C(N)=O)NC(=O)[C@H](CC(C)C)NC1=O (stereo partly drawn)	6.96
CC[C@H](C)[C@@H]1NC(=O)[C@H](NC(=O)[C@@H](N)CCCCN)CSSC[C@@H](C(=O)N[C@@H](CCCNC(=N)N)C(=O)N[C@@H](CC(C)C)C(=O)N[C@@H](CC(C)C)C(=O)N[C@@H](CCC(N)=O)C(=O)NCC(=O)NCC(=O)NCC(=O)N[C@@H](CCCNC(=N)N)C(=O)N[C@@H](CCCNC(=N)N)C(=O)N[C@@H](CCCNC(=N)N)C(=O)N[C@@H](CCCNC(=N)N)C(=O)N[C@@H](CCCNC(=N)N)C(=O)N[C@@H](CCCNC(=N)N)C(=O)N[C@@H](CCCNC(=N)N)C(N)=O)NC(=O)[C@H](CC(C)C)NC1=O	6.13
CC[C@H](C)[C@@H]1NC(=O)[C@H](NC(=O)[C@@H](N)CCCCN)CSSC[C@@H](C(=O)N[C@@H](CCCNC(=N)N)C(=O)N[C@@H](CC(C)C)C(=O)N[C@@H](CC(C)C)C(=O)N[C@@H](CCC(N)=O)C(N)=O)NC(=O)[C@H](CC(C)C)NC1=O (H-K[dC]ILCRLLQ-NH2; disulfide 2-5)	7.46
CCC(NC(=O)[C@H](CC(C)C)NC(=O)[C@@H](NC(=O)[C@H](Cc1cnc[nH]1)NC(=O)[C@@H](N)CCCNC(=N)N)[C@@H](C)CC)C(=O)N[C@@H](CCCNC(=N)N)C(=O)NC(CC(C)(C)C)C(=O)N[C@@H](CC(C)C)C(=O)N[C@@H](CCC(N)=O)C(N)=O (stereo partly drawn) (H-RHIL[ξAbu]R[ξtBuAla]LQ-NH2)	6.21

Would you kindly look at the next entry?
State, in one line, measured pIC50 of CCC(NC(=O)[C@H](CC(C)C)NC(=O)[C@@H](NC(=O)C(CC)NC(=O)[C@@H](N)CCCNC(=N)N)[C@@H](C)CC)C(=O)N[C@@H](CCCNC(=N)N)C(=O)NC(CC(C)(C)C)C(=O)N[C@@H](CC(C)C)C(=O)NCC(N)=O (stereo partly drawn) (H-R[ξAbu]IL[ξAbu]R[ξtBuAla]LG-NH2)
6.17

---

Non-standard residues stand in square brackets, D forms with d. Residues, ends and D or L forms follow the SMILES beside them. ξ: configuration not given here. ξtBuAla = CC(C)(C)CC(N)C(=O)O; ξAbu = CCC(N)C(=O)O
Target or system Estrogen receptor (Homo sapiens): recorded IC50 listed per item.

Examples with answers:
CC[C@H](C)[C@@H]1NC(=O)[C@H](NC(=O)[C@H](CCCNC(=N)N)NC(=O)CNC(=O)CNC(=O)CNC(=O)[C@H](CCCNC(=N)N)NC(=O)[C@H](CCCNC(=N)N)NC(=O)[C@H](CCCNC(=N)N)NC(=O)[C@H](CCCNC(=N)N)NC(=O)[C@H](CCCNC(=N)N)NC(=O)[C@H](CCCNC(=N)N)NC(=O)[C@@H](N)CCCNC(=N)N)CSSC[C@@H](C(=O)N[C@@H](CCCNC(=N)N)C(=O)NC(CC(C)(C)C)C(=O)N[C@@H](CC(C)C)C(=O)N[C@@H](CCC(N)=O)C(N)=O)NC(=O)[C@H](CC(C)C)NC1=O (stereo partly drawn)	> 1000 nM
CC[C@H](C)[C@@H]1NC(=O)[C@H](NC(=O)[C@@H](N)CCCNC(=N)N)CCCC[C@@H](C(=O)N[C@@H](CCCNC(=N)N)C(=O)NC(CC(C)(C)C)C(=O)N[C@@H](CC(C)C)C(=O)N[C@@H](CCC(N)=O)C(N)=O)NC(=O)[C@H](CC(C)C)NC1=O (stereo partly drawn)	> 1000 nM

Report value: IC50, system: Estrogen receptor (Homo sapiens), compound: CCC(NC(=O)[C@@H](N)CCCNC(=N)N)C(=O)N[C@H](C(=O)N[C@@H](CC(C)C)C(=O)N[C@@H](Cc1cnc[nH]1)C(=O)N[C@@H](CCCNC(=N)N)C(=O)NC(CC(C)(C)C)C(=O)N[C@@H](CC(C)C)C(=O)N[C@@H](CCC(N)=O)C(N)=O)[C@@H](C)CC (stereo partly drawn) (H-R[ξAbu]ILHR[ξtBuAla]LQ-NH2)
> 1000 nM
